- assayedTarget: T1, human BDCA2 (human, UniProt Q8WTT0 1-213)
- T1 construct: whole, on cells; also called hBDCA2; Blood dendritic cell antigen 2
- T1 sequence (looked up): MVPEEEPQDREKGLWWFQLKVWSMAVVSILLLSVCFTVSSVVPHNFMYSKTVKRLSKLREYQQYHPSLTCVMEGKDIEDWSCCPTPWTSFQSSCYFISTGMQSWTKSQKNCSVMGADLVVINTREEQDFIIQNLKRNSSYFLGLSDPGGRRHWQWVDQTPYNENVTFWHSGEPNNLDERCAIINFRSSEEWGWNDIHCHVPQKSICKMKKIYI
- testName: FACS on CHOK1-hBDCA2 cells; EC50 table beside the plot, unit from the x axis (nM) [continued) c.]
reportedMetric: pEC50
Please treat pEC50 as minus the base-10 logarithm of the molar concentration.

For this binder ( mab030c (antibody, V domains shown) VH: DVQLQESGPGLVKPSQSLSLTCSVTGYSITSAYYWNWIRQFPGNKLECMGYISYDGSNYYNPSLKNRISITRDTSKNQFFLSLNSVTTEDTATYFCVRGGDYDDGGFAYWGQGTLVTVSA VL: DIQMTQSPASLSASVGETVTITCRASGNIHNYLAWYQQKQGKSPQLLVYNAKTLADGVPSRFSGSGSETQYSLKINSLQPEDFGNYFCQHFWIIPYTFGGGTKLEIK ), measured pEC50 is 9.23

Looking up BIIB059 (antibody, V domains shown) VH: DVQLVESGGGLVKPGGSLRLSCAASGFTFSTYTMSWVRQAPGKGLEWVATISPGDSFGYYYPDSVQGRFTISRDNAKNSLYLQMNSLRAEDTAVYYCTRDIYYNYGAWFAYWGQGTLVTVSS VL: DIQLTQSPSSLSASVGDRVTITCKASQSVDYDGDSYMNWYQQKPGKAPKLLIYAASTLESGVPSRFSGSGSGTDFTLTISSLQPEDFATYYCQQANEDPRTFGQGTKVEIKR , I found its pEC50 recorded as 8.70

The reported value for mab022c (antibody, V domains shown) VH: DVQLQESGPGLVKPSQSLSLTCSVTGYSITSGYYWNWIRQFPGNKLEWMGYISFDGTYNYNPSLKDRFSITRDTSKNQFFLKLNSVTTEDTATYYCARGVDYPKAMDWWGQGTSVTVSS VL: DIVLTQSPASLAVSLGQRATISCRASESVSMHVTHLIHWYQQKPGQPPKLLIYVASNLESGVPARFSGSGSETDFTLNIHPVEEEDAATYFCQQSFEDPWTFGGGTKLEIK in terms of pEC50 is 9.03

Reported pEC50 for mab033c (antibody, V domains shown) VH: EVQMVESGGDLVKPGDSLKLSCAASGFTFRSYGMSWVRQTPDKRLEWVATISSGDSYTYYPDSVKGRFTISRDNAKNTLYLQMSSLKSEDTALYYCARQIYYDYAYYFDFWGQGTTLTVSS VL: DIVLTQSPASLAVSLGQRATISCRASESVSFRTSHLMHWYQQKPGQPPKLLIYGASNLESGVPARFSGSGSETDFTLNIHPVEEEDAAAYFCQQSIEDPPTFGGGTKLEIK was 9.56
